IC50 for assorted compounds
Tested on: Cryptococcus neoformans
Experiment: Antifungal activity against Cryptococcus neoformans ATCC 90113 after 70 to 74 hrs by alamar blue dye based CLSI method
Type: functional
Residues, ends and D or L forms follow the SMILES beside them.
Value expressed in µg/mL; do not type the unit.

• COC(=O)[C@H](Cc1c[nH]c(-c2ccc(-c3ccccc3)cc2)n1)NC(=O)[C@H](Cc1c[nH]c2ccccc12)NC(=O)[C@@H](N)Cc1c[nH]c(-c2ccc(-c3ccccc3)cc2)n1 = 0.35
• Cc1ccc(-c2nc(C[C@H](NC(=O)[C@H](Cc3c[nH]c4ccccc34)NC(=O)[C@@H](N)Cc3c[nH]c(-c4ccc(C)cc4)n3)C(=O)NCc3ccccc3)c[nH]2)cc1 = 5.56

Task item: Consider the compound COC(=O)[C@H](Cc1c[nH]cn1)NC(=O)[C@H](Cc1c[nH]c2ccccc12)NC(=O)[C@@H](N)Cc1c[nH]cn1 (H-His-Trp-His-OMe) and give its measured IC50.
Reply: 9.81

---

MFC for assorted molecules
System: Cryptococcus neoformans
Experiment: Antifungal activity against Cryptococcus neoformans ATCC 90113 after 70 to 74 hrs by alamar blue dye based CLSI method
Format: functional
Residues, ends and D or L forms follow the SMILES beside them. *: point of attachment. NHBn = c1ccc(CN*)cc1
Value expressed in mg/L; do not type the unit.

Look over these answered cases.
- Cc1ccc(-c2nc(C[C@H](NC(=O)[C@H](Cc3c[nH]c4ccccc34)NC(=O)[C@@H](N)Cc3c[nH]c(-c4ccc(C)cc4)n3)C(=O)NCc3ccccc3)c[nH]2)cc1: 10
- COC(=O)[C@H](Cc1c[nH]c(-c2ccc(C(C)(C)C)cc2)n1)NC(=O)[C@H](Cc1c[nH]c2ccccc12)NC(=O)[C@H](Cc1c[nH]c(-c2ccc(C(C)(C)C)cc2)n1)NC(=O)OC(C)(C)C: 5
- N[C@@H](Cc1c[nH]c(-c2ccc(-c3ccccc3)cc2)n1)C(=O)N[C@@H](Cc1c[nH]c2ccccc12)C(=O)N[C@@H](Cc1c[nH]c(-c2ccc(-c3ccccc3)cc2)n1)C(=O)NCc1ccccc1: 2.5
- CC(C)(C)OC(=O)N[C@@H](Cc1c[nH]c(-c2ccccc2)n1)C(=O)N[C@@H](Cc1c[nH]c2ccccc12)C(=O)N[C@@H](Cc1c[nH]c(-c2ccccc2)n1)C(=O)NCc1ccccc1: 2.5
- C[C@@H]1[C@H](O)[C@@H](C)/C=C/C=C/C=C/C=C/C=C/C=C/C=C/[C@H](O[C@@H]2O[C@H](C)[C@@H](O)[C@H](N)[C@@H]2O)C[C@@H]2O[C@](O)(C[C@@H](O)C[C@@H](O)[C@H](O)CC[C@@H](O)C[C@@H](O)CC(=O)O[C@H]1C)C[C@H](O)[C@H]2C(=O)O [AMPHOTERICIN B]: 1.25

Task item: Consider the molecule COC(=O)[C@H](Cc1c[nH]cn1)NC(=O)[C@H](Cc1c[nH]c2ccccc12)NC(=O)[C@@H](N)Cc1c[nH]cn1 (H-His-Trp-His-OMe) and give its measured MFC.
Reply: 20

Task item: Same again, this time with N[C@@H](Cc1cnc[nH]1)C(=O)N[C@@H](Cc1c[nH]c2ccccc12)C(=O)N[C@@H](Cc1cnc[nH]1)C(=O)NCc1ccccc1 (H-His-Trp-His-NHBn)
Reply: 10

Task item: Same again, this time with COC(=O)[C@H](Cc1c[nH]c(-c2ccc(C(C)(C)C)cc2)n1)NC(=O)[C@H](Cc1c[nH]c2ccccc12)NC(=O)[C@@H](N)Cc1c[nH]c(-c2ccc(C(C)(C)C)cc2)n1
Reply: 1.25
